system: Streptococcus; assay: Group A Streptococcus viability loss, dose response, counter-screen for streptokinase expression inhibitor project, luminescence, BacTiterGlo (AID 1915); assay type: functional, organism-based;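 note: potency for reduction of bacterial viability or growth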
The source made the active and inactive calls.
reported-endpoint: EC50

Solved cases (5 shown):
>>> df
                                   compound  reported_endpoint         recorded_value
0      O=C(O)c1ccc2c3c(ncnc13)-c1ccccc1C2=O               EC50  > 150 µM (not active)
1      Oc1c(Cl)cc(Cl)c2cccnc12 [CHLOROXINE]               EC50       3.31 µM (active)
2  COc1cc(C(=O)NNC(=S)NC(=O)c2ccc(F)cc2)cc(OC)c1OC               EC50       15.5 µM (active)
3           O=C(Nc1ccccc1)Nc1cc(Cl)cc(Cl)c1               EC50       48.6 µM (active)
4  COC(=O)c1ccc(N2CCN(C)CC2)c(NC(=O)COc2ccc(C)cc2)c1               EC50  > 150 µM (not active)

Short answer on Streptococcus for C/C(=N/Nc1nc(-c2ccccc2F)nc2ccccc12)c1ccccc1O , EC50: > 150 µM (not active)

The measured EC50 that Oc1nc(Nc2ccc(F)cc2)sc1/C=C1\C=Nc2ccccc21 showed for Streptococcus is 18.4 µM (active)

// returns EC50 for Cc1nn(Cc2ccc(C(=O)Nc3nc4c(C)cccc4s3)o2)c(C)c1Br with Streptococcus; value = 8.54 µM (active)

The compound O=C(CN(c1cccc(Br)c1)S(=O)(=O)c1ccccc1)N/N=C/c1cc([N+](=O)[O-])ccc1O on Streptococcus: EC50 was 0.587 µM (active)

Entry O=C(Cn1nc2ccccc2n1)N/N=C/c1cc([N+](=O)[O-])ccc1O ; assay system Streptococcus; EC50 recorded at 0.55 µM (active)

----------
Target: Short transient receptor potential channel 4 (Mus musculus)
Sequence (Q9QUQ5 whole entry): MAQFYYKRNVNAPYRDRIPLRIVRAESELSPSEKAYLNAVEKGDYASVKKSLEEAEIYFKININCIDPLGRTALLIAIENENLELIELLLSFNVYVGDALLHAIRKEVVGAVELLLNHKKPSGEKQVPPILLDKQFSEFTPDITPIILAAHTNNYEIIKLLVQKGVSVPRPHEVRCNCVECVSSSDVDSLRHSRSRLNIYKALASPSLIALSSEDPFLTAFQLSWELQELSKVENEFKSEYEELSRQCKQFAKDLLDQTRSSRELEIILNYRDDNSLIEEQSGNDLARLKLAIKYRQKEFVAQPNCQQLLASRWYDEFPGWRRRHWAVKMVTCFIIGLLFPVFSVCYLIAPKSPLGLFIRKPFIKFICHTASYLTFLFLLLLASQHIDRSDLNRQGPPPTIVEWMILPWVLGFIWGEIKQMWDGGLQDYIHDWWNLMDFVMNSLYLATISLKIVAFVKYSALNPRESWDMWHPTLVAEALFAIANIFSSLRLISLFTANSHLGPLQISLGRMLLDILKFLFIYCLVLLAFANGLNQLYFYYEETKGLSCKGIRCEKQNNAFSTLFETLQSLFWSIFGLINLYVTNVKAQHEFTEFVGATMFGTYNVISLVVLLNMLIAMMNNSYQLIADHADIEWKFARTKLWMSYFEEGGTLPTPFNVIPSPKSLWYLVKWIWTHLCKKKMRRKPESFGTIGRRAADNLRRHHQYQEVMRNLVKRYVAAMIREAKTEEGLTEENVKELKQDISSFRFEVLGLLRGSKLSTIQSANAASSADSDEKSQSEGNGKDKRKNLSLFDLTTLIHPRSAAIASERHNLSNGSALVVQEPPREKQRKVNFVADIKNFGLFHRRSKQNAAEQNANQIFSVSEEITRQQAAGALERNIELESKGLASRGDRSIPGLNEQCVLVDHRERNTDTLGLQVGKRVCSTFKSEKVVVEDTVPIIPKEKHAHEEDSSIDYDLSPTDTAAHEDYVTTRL
Test: mouse TRPC4 channel activators, dose response, cell-based, HEK293 TRPC4/mu-opioid, Fluo-4 calcium (AID 434937)
Assay type: functional
The source made the active and inactive calls.
reported-endpoint: EC50

In [3]: df
Out[3]:
                               smiles_input                              assay_system      recorded_value
0  CCCOc1ccc(C(=O)NC(=S)NNC(=O)c2c(-c3ccccc3)noc2C)cc1  Short transient receptor potential channel 4 (Mus musculus)    2.66 µM (active)
1   COc1ccc(Cl)cc1C(=O)Nc1ccccc1N1CCN(C)CC1  Short transient receptor potential channel 4 (Mus musculus)    5.96 µM (active)
2                      CC(=O)OCC[N+](C)(C)C  Short transient receptor potential channel 4 (Mus musculus)  0.0667 µM (active)

What the record says about Cc1ccc2oc(=O)c3cnn(CC(=O)NC4CCN(Cc5ccccc5)CC4)c3c2c1 : EC50 is 2.11 µM (active)

----------
target: Protein skinhead-1 (Caenorhabditis elegans, UniProt P34707); type: functional
Sequence (P34707 whole entry): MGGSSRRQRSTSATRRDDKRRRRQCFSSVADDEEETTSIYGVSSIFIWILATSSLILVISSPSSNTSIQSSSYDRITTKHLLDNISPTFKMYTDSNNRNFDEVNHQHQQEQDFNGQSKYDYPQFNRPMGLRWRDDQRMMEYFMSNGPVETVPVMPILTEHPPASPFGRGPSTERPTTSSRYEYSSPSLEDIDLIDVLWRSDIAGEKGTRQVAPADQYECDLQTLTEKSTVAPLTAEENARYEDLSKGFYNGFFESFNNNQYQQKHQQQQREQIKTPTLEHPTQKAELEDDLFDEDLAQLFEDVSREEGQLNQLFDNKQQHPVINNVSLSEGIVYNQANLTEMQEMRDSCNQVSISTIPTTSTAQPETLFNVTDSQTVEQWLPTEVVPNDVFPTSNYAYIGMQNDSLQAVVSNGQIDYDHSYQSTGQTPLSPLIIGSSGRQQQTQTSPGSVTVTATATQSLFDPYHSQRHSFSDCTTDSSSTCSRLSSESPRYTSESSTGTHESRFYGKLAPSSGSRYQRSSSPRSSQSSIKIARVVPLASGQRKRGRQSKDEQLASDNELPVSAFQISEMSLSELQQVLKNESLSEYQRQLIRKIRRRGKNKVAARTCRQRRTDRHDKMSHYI
Calls of active or inactive are those of the source.
Just give me one of these, please: active, inactive

Look over these answered cases.
In [3]: df
Out[3]:
                             smiles_input  discrete_label
0           c1ccc(-c2nc(-c3ccncc3)no2)cc1          active
1      O=S(=O)(c1ccc(N2CCCC2)cc1)C(F)(F)F        inactive
2     O=C(Nc1ccc(Cl)c(C(F)(F)F)c1)c1ccco1          active
3         O=C(Nc1ccc(SC(F)F)cc1)c1ccccc1F          active
4  Cc1sc(NC(=O)C2=COCCO2)nc1-c1ccc(Cl)cc1        inactive
5     COc1ccccc1NC(=O)c1ccc(CN2CCOCC2)cc1        inactive

# evaluate next
Req: Assay outcome for CCOc1ccc2nc(NC(=O)c3ccc(S(=O)(=O)N4CCOCC4)cc3)sc2c1 : what was it?
Resp: inactive

----------
biological target: Cytochrome P450 2C19 (Homo sapiens); assay: Cytochrome panel assay with activity outcomes. Panel member name: p450-cyp2c19 Compounds with AC50 equal or less than 10 uM are considered active; type: functional; details: read-out: AC50
Sequence (P33261 whole entry): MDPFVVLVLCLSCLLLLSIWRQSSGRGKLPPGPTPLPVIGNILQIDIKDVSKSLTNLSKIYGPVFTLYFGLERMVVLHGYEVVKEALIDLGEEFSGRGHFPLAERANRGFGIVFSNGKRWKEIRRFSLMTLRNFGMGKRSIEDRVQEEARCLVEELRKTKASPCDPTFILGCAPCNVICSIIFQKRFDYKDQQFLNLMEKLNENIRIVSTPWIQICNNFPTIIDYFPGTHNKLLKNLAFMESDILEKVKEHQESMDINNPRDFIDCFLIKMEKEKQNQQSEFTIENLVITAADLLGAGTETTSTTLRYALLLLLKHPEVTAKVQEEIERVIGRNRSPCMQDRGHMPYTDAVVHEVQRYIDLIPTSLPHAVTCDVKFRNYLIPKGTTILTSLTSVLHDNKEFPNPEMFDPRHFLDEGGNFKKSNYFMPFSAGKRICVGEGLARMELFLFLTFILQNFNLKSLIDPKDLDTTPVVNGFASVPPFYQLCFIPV
reported-endpoint: AC50

Sample records with AC50:
>>> print(df.to_string())
                                   molecule            recorded_value
0  Cc1ccc(NC(=O)CN(C)C(=O)CSc2n[nH]c(N)n2)cc1  0.0355 µM (inconclusive)
1  CCOc1ccc2nc(NC(=O)c3ccc(S(=O)(=O)N4CCOCC4)cc3)sc2c1    2.82 µM (inconclusive)
2       c1ccc(C[C@@H](c2ccccc2)N2CCCCC2)cc1    7.94 µM (inconclusive)
3     FC(F)(F)c1cc(-c2ccco2)nc(NCc2cccs2)n1    1.26 µM (inconclusive)

The reported AC50 of the molecule O=C1CCC[C@@H](C(C(=O)OCc2ccccc2)C(=O)OCc2ccccc2)C1 was 3.98 µM (inconclusive)

Value of AC50 reported for the molecule O=C(CN1CCN(Cc2ccccc2)CC1)c1ccc(Br)cc1 is 14.1 µM (inconclusive)

Lab note: COC(=O)N1CCC2(CCN(Cc3ccc(C#N)cc3)CC2)CC1 gave AC50 of 0.1 µM (inconclusive)

The molecule listed as CCCCNC(=O)C(=O)c1ccccc1NC(C)=O shows AC50 equal to 22.4 µM (inconclusive)

// field: AC50; key: CC1(C)OC(=O)N(Cc2ccco2)C1(C)O (configuration not stated) ; value = 14.1 µM (inconclusive)

Note to self: AC50 recorded for CCOC(=O)CC(=O)CSc1nc(-c2ccccc2)cc(-c2ccc(Cl)cc2)c1C#N was 7.08 µM (inconclusive)

The measured AC50 associated with CC(C)On1c(SC(C)C)nc2ccccc2c1=O reads 28.2 µM (inconclusive)

According to the records, this molecule O=C(NCCN1CCN(C(=O)c2cc3ccccc3oc2=O)CC1)c1cc2ccccc2oc1=O displays AC50 of 3.98 µM (inconclusive)

Value of measured AC50 for the entry Cc1nc(-n2nc3c(c2O)CCCC3)[nH]c(=O)c1Cc1ccccc1 : 25.1 µM (inconclusive)

Short answer for O=S(=O)(c1ccccc1)N1CCC2(CC1)CN(c1ccccn1)C2 : AC50 was 10 µM (inconclusive)

Record CCN(CC)S(=O)(=O)c1ccc(C(=O)Nc2ncn(Cc3ccccc3)n2)cc1 . Reported AC50: 25.1 µM (inconclusive)

----------
biological target: Serine/threonine-protein kinase Chk1 (Homo sapiens, UniProt O14757); type: functional;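 note: measured as one member of a kinome-wide kinase profiling panel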
Sequence (O14757 whole entry): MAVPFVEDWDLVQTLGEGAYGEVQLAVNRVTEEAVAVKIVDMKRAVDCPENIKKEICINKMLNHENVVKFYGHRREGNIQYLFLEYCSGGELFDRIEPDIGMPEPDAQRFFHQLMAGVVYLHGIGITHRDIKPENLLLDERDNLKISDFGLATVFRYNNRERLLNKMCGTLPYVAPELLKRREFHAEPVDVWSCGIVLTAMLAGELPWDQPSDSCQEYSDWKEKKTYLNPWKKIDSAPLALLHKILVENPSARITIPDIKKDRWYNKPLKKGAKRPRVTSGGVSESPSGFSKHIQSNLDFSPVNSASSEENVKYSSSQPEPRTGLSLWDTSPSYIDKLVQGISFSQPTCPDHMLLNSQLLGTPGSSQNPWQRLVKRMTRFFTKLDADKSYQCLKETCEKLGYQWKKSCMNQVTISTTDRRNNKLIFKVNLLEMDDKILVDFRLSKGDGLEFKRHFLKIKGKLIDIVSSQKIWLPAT
The source made the active and inactive calls.
Write down the outcome that applies. Available outcomes: active, inactive

Req: Tell me the assay call for Cc1ccc2nccc(NC(=O)Nc3cccc(C(F)(F)F)n3)c2c1 please.
Resp: inactive

Req: Give the logged outcome of this assay for the following compound: Cc1nn(C)c2sc3c(=O)[nH]cnc3c12
Resp: inactive

Req: Field: outcome | Entry: Nc1nnc2cccc(Cl)n12
Resp: active

Req: Dear all, I need the recorded test outcome for COc1cc2c(cc1F)C(c1ccccc1Cl)=Nc1c(n[nH]c1C)N2 [RG-1530] , thank you.
Resp: active
